# Test Summary: Safety index, ratio of IC50 for african green monkey Vero cells to MIC for multidrug-resistant Mycobacterium tuberculosis
# Format: toxicity, cell-based
Readout Kind: selectivity ratio
Please give the numeric answer without any surrounding text.

Q: Given the compound COc1cc2c(cc1OC)C1=NN(C(=O)Nc3ccc(Cl)cc3)C(c3ccc(F)cc3)C1C2 (stereo unspecified) , what is its reported selectivity ratio?
Ans: 40.3
